# System: IGFBP-1
# experiment.description: IGFBP-1 mRNA expression in HepG2 cells
# Type: cell-based, human
# assay.conditions: Experiment 2, insulin treated: HepG2 cells transfected with oligomeric compound, 1 nM insulin for four hours; UTC + 1 nM insulin = 100
In the oligonucleotide strings, read from the 5' end, every base follows the letter of its sugar. An asterisk marks phosphorothioate; unmarked linkages are phosphodiester. Other units and linkages are bracketed, terminal groups are in braces. A string of capitals states the bases alone. e = 2'-O-(2-methoxyethyl) (MOE); [5mC] = 5-methylcytosine; d = 2'-deoxy (DNA)
As shown below, each of these substances has a reported IGFBP1 mRNA expression value.
Answer with a number only.

A selection of reference data follows.
328702 (eT*eG*eA*e[5mC]*e[5mC]*dA*d[5mC]*dA*dA*dA*dA*dT*dT*d[5mC]*d[5mC]*eT*eT*eA*e[5mC]*eA; antisense) [compound 328702] = 83
328342 (e[5mC]*eA*eA*eT*eT*dG*d[5mC]*dG*d[5mC]*dT*dA*d[5mC]*dA*dG*dA*eA*e[5mC]*eT*eG*eT) [compound 328342] = 98
328761 (antisense eG*e[5mC]*eA*eG*eG*d[5mC]*dT*dA*dA*dA*dA*dG*dA*dA*dA*eT*eA*eA*eG*e[5mC]) [compound 328761] = 193
328377 (eT*e[5mC]*eA*e[5mC]*eT*d[5mC]*d[5mC]*dT*dA*dA*dA*dG*dG*dT*dT*e[5mC]*eA*eA*eG*eT; antisense) [compound 328377] = 247
328343 (eT*e[5mC]*eG*eA*eT*dT*dT*dA*dG*dT*dT*dA*dT*d[5mC]*dT*eA*eA*eA*eA*eA) [compound 328343] = 135

Okay, next one:
So what does the record say about IGFBP1 mRNA expression for 327949 (antisense e[5mC]*eA*e[5mC]*eA*eA*eA*eT*eT*e[5mC]*eG*eG*eA*eT*e[5mC]*eT*eA*e[5mC]*eA*eG*eG*eG*eT*eA) [compound 327949] ? 172
